# Test system: HCC827
# test-protocol: HCC827 cell viability
# Assay type: cell-based
# applied-conditions: Homo sapiens, compound at 1 nM, n in the line below, read-out: HCC827 (% viable at 1 nM)
The following compounds are listed with their measured viability at 0.001 µM values.
Answer format reminder: number followed by unit.

| compound | tested-target | viability at 0.001 µM |
| --- | --- | --- |
| COc1ccc(-c2ccccc2)cc1Nc1ncnc2[nH]nc(-c3cc[nH]n3)c12 | HCC827 | 30.6% |
| CN(C)c1ccc(-c2ccsc2)cc1Nc1ncnc2[nH]nc(-c3cc[nH]n3)c12 [104A] | HCC827 | 29.8% |
| COc1ccc(-c2ccccc2)cc1Nc1ncnc2[nH]cc(-c3cc[nH]n3)c12 | HCC827 | 99.9% |

Let us examine a further case.
Looking up CN(C)c1ccc(-c2ccsc2)cc1Nc1ncnc2[nH]nc(-c3ccn(C)n3)c12 [104B] , I see its viability at 0.001 µM listed as 25.2%

* * *

# test-protocol: Pharmacokinetic study, IV administration in male CD-1 mice
# Assay type: in vivo
# applied-conditions: male, CD-1, mouse, plasma, iv, 2 mg/kg, Mean
A collection of compounds and their measured concentration at 3 h
# value in ng/mL; strip the unit string

| compound | number |
| --- | --- |
| COc1ccc(-c2cccc(F)c2)cc1Nc1ncnc2[nH]nc(-c3cc[nH]n3)c12 [8168B] | 9.72 |

Turning now to a further compound:
Reported concentration at 3 h ( COc1ccc(-c2ccc(F)cc2)cc1Nc1ncnc2[nH]nc(-c3cc[nH]n3)c12 [8168C] ) = 18.6

* * *

# test-protocol: Pharmacokinetic study, IV administration in male CD-1 mice
# Type: in vivo
# applied-conditions: male, CD-1, mouse, plasma, iv, 2 mg/kg, individual mice M1-M3
quantity-name: AUC(0-t) (ng·h/mL)
Could you give me the number in ng·h/mL? Just the number is fine.

| compound | units | AUC(0-t) |
| --- | --- | --- |
| COc1ccc(-c2cccc(F)c2)cc1Nc1ncnc2[nH]nc(-c3cc[nH]n3)c12 [8168B] | ng·h/mL | 183 |

Note to self: AUC(0-t) recorded for COc1ccc(-c2ccc(F)cc2)cc1Nc1ncnc2[nH]nc(-c3cc[nH]n3)c12 [8168C] was 496

* * *

# test-protocol: Pharmacokinetic study, IP administration in male CD-1 mice
# Type: in vivo
# applied-conditions: male, CD-1, mouse, plasma, ip, 2 mg/kg, individual mice M1-M3
quantity-name: concentration at 3 h (ng/mL)
I only need the number, in ng/mL, no unit after it.

Documented concentration at 3 h of COc1ccc(-c2cccc(F)c2)cc1Nc1ncnc2[nH]nc(-c3cc[nH]n3)c12 [8168B] : 2.25

* * *

Items are presented alongside their recorded AUC0-inf.
# test-protocol: Pharmacokinetic study, IP administration in male CD-1 mice
# Format: in vivo
# applied-conditions: male, CD-1, mouse, plasma, ip, 2 mg/kg, individual mice M1-M3, read-out: AUC0-inf
The reply must contain the numeric value and, after it, the unit.

Measured AUC0-inf, COc1ccc(-c2cccc(F)c2)cc1Nc1ncnc2[nH]nc(-c3cc[nH]n3)c12 [8168B] : 204 ng·h/mL

Reported AUC0-inf for COc1ccc(-c2ccc(F)cc2)cc1Nc1ncnc2[nH]nc(-c3cc[nH]n3)c12 [8168C] was 212 ng·h/mL

* * *

# test-protocol: Pharmacokinetic study, IV administration in male CD-1 mice
# Assay type: in vivo
# applied-conditions: male, CD-1, mouse, plasma, iv, 2 mg/kg, Mean, read-out: T½ (converted)
quantity-name: half-life (h)
Value expressed in h; do not type the unit.

| compound | half-life / h |
| --- | --- |
| COc1ccc(-c2cccc(F)c2)cc1Nc1ncnc2[nH]nc(-c3cc[nH]n3)c12 [8168B] | 27.8 |

Lab book: half-life of COc1ccc(-c2ccc(F)cc2)cc1Nc1ncnc2[nH]nc(-c3cc[nH]n3)c12 [8168C] noted as 1.49

* * *

concentration at 0.25 h listing for selected molecules.
# test-protocol: Pharmacokinetic study, IP administration in male CD-1 mice
# Type: in vivo
# applied-conditions: male, CD-1, mouse, plasma, ip, 2 mg/kg, Mean
Please respond with the number in ng/mL and leave the unit unwritten.

| molecule | concentration at 0.25 h [ng/mL] |
| --- | --- |
| COc1ccc(-c2cccc(F)c2)cc1Nc1ncnc2[nH]nc(-c3cc[nH]n3)c12 [8168B] | 210 |

Kindly consider the entry below.
Record summary for COc1ccc(-c2ccc(F)cc2)cc1Nc1ncnc2[nH]nc(-c3cc[nH]n3)c12 [8168C] : reported concentration at 0.25 h = 228

* * *

# tested-target: 2YF/3wt + NRG Ba/F3 cells (HER2YF/HER3wt) (Homo sapiens, UniProt P04626, Y1005F/Y1023F/Y1112F/Y1127F/Y1139F/Y1196F/Y1221F/Y1222F/Y1248F, cells depend on it)
# Sequence (P04626 whole entry Y1005F/Y1023F/Y1112F/Y1127F/Y1139F/Y1196F/Y1221F/Y1222F/Y1248F): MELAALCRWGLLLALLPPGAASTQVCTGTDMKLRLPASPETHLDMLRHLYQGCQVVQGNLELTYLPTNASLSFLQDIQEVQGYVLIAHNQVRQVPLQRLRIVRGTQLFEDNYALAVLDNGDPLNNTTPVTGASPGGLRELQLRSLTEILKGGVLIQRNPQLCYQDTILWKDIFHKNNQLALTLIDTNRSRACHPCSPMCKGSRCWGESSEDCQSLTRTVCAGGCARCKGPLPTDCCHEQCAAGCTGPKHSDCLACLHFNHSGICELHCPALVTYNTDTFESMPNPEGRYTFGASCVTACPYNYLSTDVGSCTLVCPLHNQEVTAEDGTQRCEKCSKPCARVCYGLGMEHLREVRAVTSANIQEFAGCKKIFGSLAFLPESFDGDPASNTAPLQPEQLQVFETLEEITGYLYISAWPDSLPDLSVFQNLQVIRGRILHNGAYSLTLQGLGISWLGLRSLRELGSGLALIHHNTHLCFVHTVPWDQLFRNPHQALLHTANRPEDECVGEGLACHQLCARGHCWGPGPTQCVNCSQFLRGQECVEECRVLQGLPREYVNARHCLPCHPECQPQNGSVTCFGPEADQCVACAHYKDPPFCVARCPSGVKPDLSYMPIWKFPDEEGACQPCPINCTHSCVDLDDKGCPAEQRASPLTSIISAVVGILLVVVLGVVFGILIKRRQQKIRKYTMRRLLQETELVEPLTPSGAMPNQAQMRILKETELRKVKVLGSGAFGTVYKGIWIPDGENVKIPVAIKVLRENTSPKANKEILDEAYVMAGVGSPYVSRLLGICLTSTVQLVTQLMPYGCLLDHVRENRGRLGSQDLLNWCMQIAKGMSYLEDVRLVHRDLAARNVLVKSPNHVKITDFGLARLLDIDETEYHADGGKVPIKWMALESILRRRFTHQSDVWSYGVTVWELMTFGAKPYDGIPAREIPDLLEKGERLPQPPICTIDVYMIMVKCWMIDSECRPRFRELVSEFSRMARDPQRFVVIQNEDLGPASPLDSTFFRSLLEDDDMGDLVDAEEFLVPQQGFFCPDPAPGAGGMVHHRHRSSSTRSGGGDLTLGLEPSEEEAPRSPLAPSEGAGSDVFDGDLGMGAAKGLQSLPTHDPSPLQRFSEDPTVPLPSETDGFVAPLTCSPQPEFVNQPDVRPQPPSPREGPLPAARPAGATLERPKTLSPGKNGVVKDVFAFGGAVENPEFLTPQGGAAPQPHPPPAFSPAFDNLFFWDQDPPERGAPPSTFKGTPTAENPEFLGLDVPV
# test-protocol: Ba/F3 proliferation assay, 2YF/3wt + NRG
# Type: cell-based
# applied-conditions: Tables 7 and 8; read-out: Ba/F3 line IC50, HER2YF/HER3 + NRG
quantity-name: GI50 (nM)
Use nM as the unit, but write only the number.

Past entries and their recorded results:
| compound | units | GI50 |
| --- | --- | --- |
| COc1ccc(-c2ccco2)cc1Nc1ncnc2[nH]nc(-c3ccco3)c12 [55A] | nM | 39.5 |
| COc1ccc(-c2csc(C)n2)cc1Nc1ncnc2[nH]nc(-c3ccco3)c12 [Cmpd 66A] | nM | 1560 |
| COc1ccc(-c2csc(C)c2)cc1Nc1ncnc2[nH]cc(-c3cn[nH]c3)c12 [Cmpd 172] | nM | 910 |
| COc1ccc(-c2ccccc2)cc1Nc1ncnc2[nH]nc(-c3cc[nH]n3)c12 [8-096] | nM | 2 |
| COc1ccc(-c2ccoc2)cc1Nc1ncnc2[nH]nc(-c3ccco3)c12 [Cmpd 57A] | nM | 21 |

According to the records, this compound COc1ccc(-c2ccccc2)cc1Nc1ncnc2[nH]nc(-c3ccco3)c12 [Cmpd 45A] displays GI50 of 43

Data point: COc1ccc(-c2ccsc2)cc1Nc1ncnc2[nH]cc(-c3cc[nH]n3)c12 [8-091] ; GI50 = 9.25

* * *

# tested-target: Axl+ Ba/F3 cells (Homo sapiens, UniProt P30530)
# Sequence (P30530 whole entry, change not shown): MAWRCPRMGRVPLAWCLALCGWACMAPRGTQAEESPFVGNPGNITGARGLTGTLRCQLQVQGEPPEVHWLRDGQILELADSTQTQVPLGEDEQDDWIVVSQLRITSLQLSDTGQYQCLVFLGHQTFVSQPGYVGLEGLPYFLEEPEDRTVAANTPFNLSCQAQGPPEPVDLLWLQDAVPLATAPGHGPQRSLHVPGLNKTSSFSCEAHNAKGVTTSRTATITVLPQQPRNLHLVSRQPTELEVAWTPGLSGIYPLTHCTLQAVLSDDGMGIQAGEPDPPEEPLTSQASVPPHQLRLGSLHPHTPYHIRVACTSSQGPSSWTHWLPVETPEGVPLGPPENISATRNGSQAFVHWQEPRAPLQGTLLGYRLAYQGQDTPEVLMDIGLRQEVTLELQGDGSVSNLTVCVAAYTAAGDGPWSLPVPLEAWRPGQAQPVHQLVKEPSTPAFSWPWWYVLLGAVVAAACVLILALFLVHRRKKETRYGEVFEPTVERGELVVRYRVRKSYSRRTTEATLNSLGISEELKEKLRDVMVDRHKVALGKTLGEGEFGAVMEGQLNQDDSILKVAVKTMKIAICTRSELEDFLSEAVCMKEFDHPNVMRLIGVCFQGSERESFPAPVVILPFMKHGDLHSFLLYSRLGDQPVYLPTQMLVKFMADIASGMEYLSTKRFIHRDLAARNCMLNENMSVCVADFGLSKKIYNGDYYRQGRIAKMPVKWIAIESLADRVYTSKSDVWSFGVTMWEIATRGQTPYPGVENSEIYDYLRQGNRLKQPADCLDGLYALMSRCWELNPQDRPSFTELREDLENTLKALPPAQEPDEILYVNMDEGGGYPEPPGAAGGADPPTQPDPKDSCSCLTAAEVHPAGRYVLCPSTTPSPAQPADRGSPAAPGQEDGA
# test-protocol: Ba/F3 proliferation assay, Axl+
# Format: cell-based
# applied-conditions: Tables 7 and 8; read-out: Ba/F3 line IC50, Axl+
Attribute: log10(GI50)
Log10 applied to GI50; unit prior to transform: nM.

Would you please look over these solved cases?
| molecule | log10(GI50) |
| --- | --- |
| COc1ccc(-c2ccccc2)cc1Nc1ncnc2[nH]ncc12 | 3.84 |
| CC(=O)c1cccc(-c2n[nH]c3ncnc(Nc4cc(-c5ccccc5)ccc4O)c23)c1 [Cmpd 191A] | 2.70 |

// moving on: another record for log10(GI50)
Entry under test: "COc1ccc(-c2cccs2)cc1Nc1ncnc2[nH]cc(-c3cc[nH]n3)c12" . Its log10(GI50) was 3.08

* * *

# test-protocol: Pharmacokinetic study, IP administration in male CD-1 mice
# Assay type: in vivo
# applied-conditions: male, CD-1, mouse, plasma, ip, 2 mg/kg, individual mice M1-M3
# maps each entry to its concentration at 0.25 h
Express it in ng/mL; write the number only.

| compound | concentration at 0.25 h / ng/mL |
| --- | --- |
| COc1ccc(-c2ccc(F)cc2)cc1Nc1ncnc2[nH]nc(-c3cc[nH]n3)c12 [8168C] | 207 |

Let us move to another entry and its concentration at 0.25 h.
Value of measured concentration at 0.25 h for the entry COc1ccc(-c2cccc(F)c2)cc1Nc1ncnc2[nH]nc(-c3cc[nH]n3)c12 [8168B] : 242

* * *

# maps each entry to its WuXi Microsomal stability (Mouse Extraction Ratio)
# test-protocol: Mouse Liver Microsome stability assay
# Assay type: in vitro ADME
# applied-conditions: mouse liver microsomes
Number, no unit, nothing else.

The examples below pair each entry with its known result.
| molecule | number |
| --- | --- |
| COc1ccc(-c2ccccc2F)cc1Nc1ncnc2[nH]nc(-c3cc[nH]n3)c12 [8168A] | 0.8 |
| COc1ccc(-c2ccc(F)cc2)cc1Nc1ncnc2[nH]nc(-c3cc[nH]n3)c12 [8168C] | 0.4 |
| COc1ncc(-c2ccccc2)cc1Nc1ncnc2[nH]nc(-c3cc[nH]n3)c12 [compound 8177] | 0.8 |
| CN(C)c1ccc(-c2ccccc2)cc1Nc1ncnc2[nH]nc(-c3cc[nH]n3)c12 [compound 8164] | 0.9 |
| COc1ccc(-c2ccccc2)cc1Nc1ncnc2[nH]nc(-c3n[nH]cc3C)c12 [compound 8186] | 0.7 |

Field WuXi Microsomal stability (Mouse Extraction Ratio) (entry COc1cc(C)c(-c2ccccc2)cc1Nc1ncnc2[nH]nc(-c3cc[nH]n3)c12 [compound 8134] ) reads 0.7

// FC(F)Oc1ccc(-c2ccccc2)cc1Nc1ncnc2[nH]nc(-c3cc[nH]n3)c12 [compound 8179] : WuXi Microsomal stability (Mouse Extraction Ratio) value = 0.6

Entry under test: COc1ccc(-c2ccoc2)cc1Nc1ncnc2[nH]cc(-c3cc[nH]n3)c12 [compound 178] . Its WuXi Microsomal stability (Mouse Extraction Ratio) was 0.948
